Entry source: patent US20110150767A1

- targetOfAssay: human L-type amino acid transporter 1 (LAT1; S2-hLAT1 cells) (Homo sapiens)
- Construct: expressed in transfected cells; host or cells: S2 cells (S2-hLAT1 / S2-LAT1); mammalian cell line described in Morimoto et al., J Pharmacol Sci 2008, 108, 505-516
- Sequence (Q01650 whole entry): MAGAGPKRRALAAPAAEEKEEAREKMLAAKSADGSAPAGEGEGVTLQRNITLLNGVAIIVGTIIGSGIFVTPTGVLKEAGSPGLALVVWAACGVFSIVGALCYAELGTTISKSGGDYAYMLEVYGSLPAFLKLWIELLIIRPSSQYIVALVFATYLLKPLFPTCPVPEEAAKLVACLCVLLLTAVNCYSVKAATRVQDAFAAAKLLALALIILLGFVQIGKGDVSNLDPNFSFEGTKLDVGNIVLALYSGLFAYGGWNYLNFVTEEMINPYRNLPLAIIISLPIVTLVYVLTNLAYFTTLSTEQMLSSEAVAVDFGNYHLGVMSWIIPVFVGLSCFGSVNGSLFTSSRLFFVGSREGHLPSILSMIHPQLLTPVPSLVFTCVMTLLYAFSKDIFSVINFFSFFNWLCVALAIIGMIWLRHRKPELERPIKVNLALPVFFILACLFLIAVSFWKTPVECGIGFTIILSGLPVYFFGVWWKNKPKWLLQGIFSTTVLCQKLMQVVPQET
- Sequence (P08195 102-630 partner): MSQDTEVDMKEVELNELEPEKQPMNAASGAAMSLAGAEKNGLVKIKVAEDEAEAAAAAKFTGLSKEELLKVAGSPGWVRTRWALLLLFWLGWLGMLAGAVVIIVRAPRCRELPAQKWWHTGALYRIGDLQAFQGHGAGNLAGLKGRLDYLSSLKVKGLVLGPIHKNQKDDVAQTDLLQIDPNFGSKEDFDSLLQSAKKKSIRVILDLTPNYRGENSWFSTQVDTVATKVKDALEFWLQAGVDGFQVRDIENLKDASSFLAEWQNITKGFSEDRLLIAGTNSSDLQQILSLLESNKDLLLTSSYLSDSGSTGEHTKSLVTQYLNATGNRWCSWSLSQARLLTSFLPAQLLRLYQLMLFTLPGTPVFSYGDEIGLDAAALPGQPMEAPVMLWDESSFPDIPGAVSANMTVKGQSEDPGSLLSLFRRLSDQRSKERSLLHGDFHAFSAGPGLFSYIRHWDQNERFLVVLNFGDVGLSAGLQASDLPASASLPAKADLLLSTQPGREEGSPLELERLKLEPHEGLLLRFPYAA
- assaySummary: Inhibition of L-[14C]leucine uptake in S2-LAT1 cells
- Assay type: cell-based
- recordedConditions: inhibition of 1.0 μM L-[14C]leucine uptake, 1.0 min, 37° C., NI = no inhibition at 100 μM
recordedEndpoint: IC50 (µM)

>  <itemSmiles>
CCOc1ccc(COc2c(I)cc(C[C@H](N)C(=O)O)cc2I)cc1OCC

>  <targetOfAssay>
human L-type amino acid transporter 1 (LAT1; S2-hLAT1 cells) (Homo sapiens)

>  <IC50 [µM]>
5.5

$$$$
>  <itemSmiles>
N[C@@H](Cc1cc(I)c(OCC(=O)c2ccccc2)c(I)c1)C(=O)O

>  <targetOfAssay>
human L-type amino acid transporter 1 (LAT1; S2-hLAT1 cells) (Homo sapiens)

>  <IC50 [µM]>
11.9

$$$$
>  <itemSmiles>
N[C@@H](Cc1cc(I)c(OCc2ccc([N+](=O)[O-])cc2)c(I)c1)C(=O)O

>  <targetOfAssay>
human L-type amino acid transporter 1 (LAT1; S2-hLAT1 cells) (Homo sapiens)

>  <IC50 [µM]>
11.5

$$$$
>  <itemSmiles>
COc1ccc(COc2c(Cl)cc(C[C@H](N)C(=O)O)cc2Cl)c(C)c1C

>  <targetOfAssay>
human L-type amino acid transporter 1 (LAT1; S2-hLAT1 cells) (Homo sapiens)

>  <IC50 [µM]>
3.5

$$$$
>  <itemSmiles>
COc1ccccc1CCOc1c(Br)cc(C[C@H](N)C(=O)O)cc1Br

>  <targetOfAssay>
human L-type amino acid transporter 1 (LAT1; S2-hLAT1 cells) (Homo sapiens)

>  <IC50 [µM]>
5.4

$$$$
>  <itemSmiles>
COc1cc(Cl)ccc1COc1c(Cl)cc(C[C@H](N)C(=O)O)cc1Cl

>  <targetOfAssay>
human L-type amino acid transporter 1 (LAT1; S2-hLAT1 cells) (Homo sapiens)

>  <IC50 [µM]>
4.4

$$$$

A = N[C@@H](Cc1cc(Cl)c(OCc2ccc3c(c2)OCO3)c(Cl)c1)C(=O)O
B = COc1cc(COc2c(I)cc(C[C@H](N)C(=O)O)cc2I)cc(OC)c1OC
C = N[C@@H](Cc1cc(I)c(OCc2ccc(Cl)cc2)c(I)c1)C(=O)O
D = COc1cccc(COc2c(Cl)cc(C[C@H](N)C(=O)O)cc2Cl)c1OC
Hi! Can you put these in order of IC50, lowest number first? Answer format: the labels, ordered as requested.
A, C, B, D
